# Assay System: porcine pancreatic elastase (Sus scrofa, UniProt P00772)
# Sequence (P00772 27-266): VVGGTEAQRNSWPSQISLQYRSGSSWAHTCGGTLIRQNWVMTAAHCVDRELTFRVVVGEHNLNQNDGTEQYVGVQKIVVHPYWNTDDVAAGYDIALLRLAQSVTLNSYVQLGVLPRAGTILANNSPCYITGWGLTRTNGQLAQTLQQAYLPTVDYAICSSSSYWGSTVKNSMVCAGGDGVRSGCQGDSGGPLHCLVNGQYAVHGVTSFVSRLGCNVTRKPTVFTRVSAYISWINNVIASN
# Assay Info: Elastase inhibitory activity of peptides (AAApNA hydrolysis; IC50, Ki, residual activity)
# Assay type: biochemical
# Test Settings: peptide 100 μM; elastase 0.5 μM, AAApNA 1 mM
Bridge positions count the residues as written; N and C are the ends. Peptide text beside a SMILES is read from it.
Measured Property: Residual activity of elastase (%)
Kindly provide the numeric value in % only, without the unit symbol.

Example results:
Molecule: CC[C@H](C)[C@@H]1NC(=O)[C@@H]2CCCN2C(=O)[C@@H]2CCCN2C(=O)[C@H]([C@@H](C)CC)NC(=O)[C@H](CO)NC(=O)[C@H](C)NC(=O)[C@H]([C@@H](C)O)NC(=O)[C@@H](NC(=O)[C@@H](N)CC(C)C)CSSC[C@@H](C(=O)N[C@@H](CCC(N)=O)C(=O)O)NC1=O [EC12] (H-LCTASIPPICQ-OH; disulfide 2-10; N-terminus and C-terminus assumed)
Assay System: porcine pancreatic elastase (Sus scrofa, UniProt P00772)
Measured Property: Residual activity of elastase
Observed Result: 0.2
//
Molecule: CC[C@H](C)[C@@H]1NC(=O)[C@@H]2CCCN2C(=O)[C@@H]2CCCN2C(=O)[C@H]([C@@H](C)CC)NC(=O)[C@H](CO)NC(=O)[C@H](C)NC(=O)[C@H]([C@@H](C)O)NC(=O)[C@@H](NC(=O)[C@@H](N)Cc2ccc(O)cc2)CSSC[C@@H](C(=O)N[C@@H](CCC(N)=O)C(=O)O)NC1=O [EC29] (H-YCTASIPPICQ-OH; disulfide 2-10; C-terminus assumed)
Assay System: porcine pancreatic elastase (Sus scrofa, UniProt P00772)
Measured Property: Residual activity of elastase
Observed Result: 0.1

Now look at this one.
Query: Could you share which Residual activity of elastase value was measured for CC[C@H](C)[C@@H]1NC(=O)[C@H](CO)NC(=O)[C@H](C)NC(=O)[C@H]([C@@H](C)O)NC(=O)[C@@H](NC(=O)[C@@H](N)CC(C)C)CSSC[C@@H](C(=O)N[C@@H](CCC(N)=O)C(=O)O)NC(=O)[C@H](CCC(N)=O)NC(=O)[C@@H]2CCCN2C(=O)[C@@H]2CCCN2C1=O [EC18] (H-LCTASIPPQCQ-OH; disulfide 2-10; N-terminus and C-terminus assumed) ?
Result: 0.1
